# System: MS2 coat protein
# Protocol: apparent KD of MS2 coat protein; designed switch direction (-1 OFF switch, 1 ON switch): -1; higher = weaker reporter binding
# Measurement Conditions: input ligand: none
Catalogue of sequences with associated apparent KD of MS2 coat protein
Measure: apparent KD of MS2 coat protein (nM)

[
  {
    "Macromolecule Sequence": "GGUGGACAUGAGGAUCACCCAUGUGAGGAUAUCGGCUGGUACGUGUUGGCUGGCAUCUCGAGAAGGCACAUCGU [Exclusion 1 V64] (Eterna round: R96, puzzle: Exclusion 1)",
    "Measure": "apparent KD of MS2 coat protein",
    "Numeric Readout": 49
  },
  {
    "Macromolecule Sequence": "GUCAGCUCGUGAGGAUAUACAUGAGGAUCACCCAUGUGAUCAAUAGCAGCUUCGGCUGCAUUAAUGUAGAAGGUACGAGCUGAC [ENG2/5-C1] (Eterna round: R96, puzzle: Exclusion NG 2)",
    "Measure": "apparent KD of MS2 coat protein",
    "Numeric Readout": 700
  },
  {
    "Macromolecule Sequence": "GUAAAGGGUGUCCUUAAAACAUGAGGAUCACCCAUGUGGACUAAGGAUAUCCAAAAUAAAGAUAAGGAGAAGGUAGUGGAAAGA [Usarqudi] (Eterna round: R96, puzzle: Exclusion NG 3)",
    "Measure": "apparent KD of MS2 coat protein",
    "Numeric Readout": 14
  }
]
